- subject of test: mouse ACVR2A (mouse, UniProt P27038 20-135, limits assumed)
- Sequence (P27038 20-135 limits assumed): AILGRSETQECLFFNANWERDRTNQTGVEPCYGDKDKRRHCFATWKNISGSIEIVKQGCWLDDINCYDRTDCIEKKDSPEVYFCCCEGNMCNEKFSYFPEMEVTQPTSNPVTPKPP
- measurement description: ELISA; also: test concentration or dose not given here
experimental endpoint: optical density (OD)
Kindly provide the numeric value in OD only, without the unit symbol.

Form field optical density, entry 371_A05 (antibody, V domains shown, Group II) VH: EVQLLESGGGLVQPGGSLRLSCAASGFTFSSYGMHWVRQAPGKGLEWVSNINYNGGYKSYADSVKGRFTISRDNSKNTLYLQMNSLRAEDTAVYYCARAATWHDTHLDYWGQGTLVTVSS VL: DIQMTQSPSSLSASVGDRVTITCRASQSILTYLNWYQQKPGKAPKLLIYAATSRASGVPSRFSGSGSGTDFTLTISSLQPEDFATYYCQQSDNLPLTFGGGTKVEIK : 3.24

Record 365_D08 (antibody, V domains shown, Group II) VH: EVQLLESGGGLVQPGGSLRLSCAASGFTFDSYSMHWVRQAPGKGLEWVSSINYNGGYTSYADSVKGRFTISRDNSKNTLYLQMNSLRAEDTAVYYCARAATWHDTHLDYWGQGTLVTVSS VL: DIQMTQSPSSLSASVGDRVTITCRASQSIITYVNWYQQKPGKAPKLLIYAATSRASGVPSRFSGSGSGTDFTLTISSLQPEDFATYYCQQSYDTPLTFGGGTKVEIK . Reported optical density: 2.35

Record 368_C09 (antibody, V domains shown, Group I) VH: EVQLLESGGGLVQPGGSLRLSCAASGFTFSSYSMHWVRQAPGKGLEWVSNINYNGGYTGYADSVKGRFTISRDNSKNTLYLQMNSLRAEDTAVYYCARAANWHDTHLDYWGQGTLVTVSS VL: DIQMTQSPSSLSASVGDRVTITCRASQSILTYVNWYQQKPGKAPKLLIYAATSLASGVPSRFSGSGSGTDFTLTISSLQPEDFATYYCQQSYDLPLTFGGGTKVEIK . Reported optical density: 2.61
